Tested on: human adipocytes
Test: Glycerol release assay (lipolysis) in differentiated human adipocytes
Type: cell-based
Settings: peptide concentration 100 nM; human adipocytes in vitro
Non-standard residues stand in square brackets, D forms with d. No end group written: not given here. pGlu = O=C1CC[C@@H](C(=O)O)N1
Items are presented alongside their recorded Percent Glycerol Release over Background.
Give the quantity in %, number only.

In: Fill in: Percent Glycerol Release over Background of QLNFTASW-NH2 [Peptide 54] is ___
Out: 2.8

Further cases:
In: Fill in: Percent Glycerol Release over Background of pGlu-Leu-Asn-Phe-Thr-Ala-Ser-Trp-GlyNH2 ([pGlu]LNFTASWG-NH2; SMILES CC(C)C[C@H](NC(=O)[C@@H]1CCC(=O)N1)C(=O)N[C@@H](CC(N)=O)C(=O)N[C@@H](Cc1ccccc1)C(=O)N[C@H](C(=O)N[C@@H](C)C(=O)N[C@@H](CO)C(=O)N[C@@H](Cc1c[nH]c2ccccc12)C(=O)NCC(N)=O)[C@@H](C)O; listed as Homo sapiens) [Peptide 73] is ___
Out: 0

In: Fill in: Percent Glycerol Release over Background of QLNFTASWG [Peptide 52] is ___
Out: 0.9
